TESTED_ON: T1, human VLA4-Fc (alpha4-Fc/beta1-Fc heterodimer) (human)
T1 construct: Soluble heterodimer from CHO cells, Protein A purified; also called VLA-Fc
PROTOCOL_NOTES: SPR (BIACORE), crude CHO-S supernatant on VLA4-Fc
READOUT_KIND: fold weaker binding relative to 146R0 (KD(variant)/KD(146R0)) (fold)
Give the number; fold is assumed, so skip it.

Examples with answers:
{"BINDER": "146R16 (ligand, Crude CHO-S supernatant, 3x spacer-FLAG tagged; The cell prints N: 131) FKIETTPESRYLAQIGDSVSLTCSTTGCESPFFFWRPLIDSPLNGKVTNEGTTSTLTMNPVSFGNEHSYLCTARCESRSLEKGIQVEIYSFPKDPEIHLSGPLEAGKPITVKCSVADVYPFDRLEIDLLKGDHLMKSQEFLEDADRKSLETKSLEVTFTPVIEDIGKVLVCRAKLHIDEMDSVPTVRQAVKELQVYISPGGGSDYKDDDDKGGGSDYKDDDDKGGGSDYKDDDDKGS", "REPORTED_MEASUREMENT": 1.1}
{"BINDER": "146R9 (ligand, Crude CHO-S supernatant, 3x spacer-FLAG tagged) FKIETTPESRYLAQIGDSVSLTCSTTGCESPFFFWRPQLDSPLNGKVTNEGTTSTLTMNPVSFGNEHSYLCTARCESRSLEKGIQVEIYSFPKDPEIHLSGPLEAGKPITVKCSVADVYPFDRLEIDLLKGDHLMKSQEFLEDADRKSLETKSLEVTFTPVIEDIGKVLVCRAKLHIDEMDSVPTVRQAVKELQVYISPGGGSDYKDDDDKGGGSDYKDDDDKGGGSDYKDDDDKGS", "REPORTED_MEASUREMENT": 2}

Note: attention shifts to another entry.
Param item = 146R11 (ligand, Crude CHO-S supernatant, 3x spacer-FLAG tagged) FKIETTPESRYLAQIGDSVSLTCSTTGCESPLFFWRPQLDSPLNGKVTNEGTTSTLTMNPVSFGNEHSYLCTATCESRKLEKGIQVEIYSFPKDPEIHLSGPLEAGKPITVKCSVADVYPFDRLEIDLLKGDHLMKSQEFLEDADRKSLETKSLEVTFTPVIEDIGKVLVCRAKLHIDEMDSVPTVRQAVKELQVYISPGGGSDYKDDDDKGGGSDYKDDDDKGGGSDYKDDDDKGS ; retrieve measured fold weaker binding relative to 146R0 (KD(variant)/KD(146R0)). 25.9
